Source: patent US20160193316A1

- assay target: DRB4*0101 (DRw53) (Homo sapiens, UniProt P01903+P13762, G164S)
- Construct: expressed in transfected cells; host or cells: L257.6 (fibroblasts)
- method summary: HLA class II peptide binding assay (pH 5.0)
- condition notes: DR3a motif peptides; unit not given; exemplary 15-mer containing the core sequence
So basically: is DRw53 binding information under 0.006? Then T. Not under? Then F.

> print(dat)
   sequence.entry  category.label
1       ILTDGIPDS               F
2       IVDELSEDI               F
3       VCNDEVDLY               T
4       VEVEKTASC               T
5       INRENANQL               F
6       LLMDCSGSI               T
